B1: LINE1-full (parent)
chain: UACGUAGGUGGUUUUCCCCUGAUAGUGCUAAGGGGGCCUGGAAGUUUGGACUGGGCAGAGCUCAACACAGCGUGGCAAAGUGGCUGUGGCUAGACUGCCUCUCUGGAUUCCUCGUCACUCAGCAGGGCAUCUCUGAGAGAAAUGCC

Variants of: B1
protocol.notes: self-cleavage, relative activity (ratio to wild type); higher = more cleavage; in vitro, sequencing; the parent is a self-cleaving ribozyme
experimental.endpoint: self-cleavage
Could you respond with only the numeric value?

Before answering, review these 5 worked examples.
sequence.variant: U119A U143A
measured.value: 1.16

sequence.variant: A2G G74A
measured.value: 0.69

sequence.variant: U52A A69G
measured.value: 0.71

sequence.variant: A22G A79G
measured.value: 0.76

sequence.variant: G36C G55A
measured.value: 0.13

-- ask // lookup self-cleavage for C99U U115A
-- reply 0.33

-- ask // lookup self-cleavage for U20A C28U
-- reply 1.3

-- ask // lookup self-cleavage for U39G U45G
-- reply 1.05

-- ask // lookup self-cleavage for C84A U130A
-- reply 0.07
